Biological target: mouse GnRH receptor (Mus musculus, UniProt Q01776)
Construct: expressed in transfected cells; host or cells: 293 cells
Sequence (Q01776 whole entry): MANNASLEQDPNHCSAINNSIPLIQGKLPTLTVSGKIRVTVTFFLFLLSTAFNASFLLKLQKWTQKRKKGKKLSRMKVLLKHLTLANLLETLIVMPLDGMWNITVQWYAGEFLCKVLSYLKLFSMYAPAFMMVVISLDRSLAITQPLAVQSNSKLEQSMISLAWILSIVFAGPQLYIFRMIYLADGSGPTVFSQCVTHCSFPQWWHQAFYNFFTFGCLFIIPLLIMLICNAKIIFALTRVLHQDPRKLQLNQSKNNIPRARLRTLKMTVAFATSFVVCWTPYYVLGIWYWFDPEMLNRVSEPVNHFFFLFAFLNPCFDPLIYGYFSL
Assay: Radioligand binding, 125I-GnRH-A, 293 cells expressing mouse GnRH receptors
Conditions: 1 h, substrate remaining; 10 uM compound; closer to zero = closer to 100% inhibition; read-out: S%R 10 uM mGnRHR
Task for the reader: assign each of the following compounds its reported remaining activity at 10 µM.
The reply should be a number in %, with the unit left off.

Exercise: Could you share which remaining activity at 10 µM value was measured for Cc1cc2c(cc1Cc1ccc(C(=O)N3CCCC3C)o1)C(C)(C)CCC2(C)C (stereo not shown) ?
Key: -2

Exercise: Which measured remaining activity at 10 µM value corresponds to COC(CNC(=O)c1ccc(Cc2cc3c(cc2C)C(C)(C)CCC3(C)C)o1)OC ?
Key: -2

Exercise: Entry under review: CC(=O)N1CCN(C(=O)c2ccc(Cc3cc4c(cc3C)C(C)(C)CCC4(C)C)o2)CC1 . Reported remaining activity at 10 µM?
Key: 30

Exercise: remaining activity at 10 µM for Cc1cc2c(cc1Cc1ccc(C(=O)NC3CCCC(Nc4ccnc(NCC5CCCO5)n4)C3)o1)C(C)(C)CCC2(C)C (stereo not shown) ?
Key: -14

Exercise: Reported remaining activity at 10 µM, compound Cc1cc2c(cc1Cc1ccc(C(=O)NCCc3ccccc3)o1)C(C)(C)CCC2(C)C : ____
Key: 28

Exercise: // returns reported remaining activity at 10 µM for input Cc1cc2c(cc1Cc1ccc(C(=O)NCc3ccc(S(N)(=O)=O)cc3)o1)C(C)(C)CCC2(C)C
Key: 51

Exercise: Bench note: what remaining activity at 10 µM did Cc1cc2c(cc1Cc1ccc(C(=O)Nc3ccc4[nH]c(-c5ccccn5)nc4c3)o1)C(C)(C)CCC2(C)C show?
Key: 47

Exercise: Value lookup for remaining activity at 10 µM; key = Cc1cc2c(cc1Cc1ccc(C(=O)N(CCN(C)C)Cc3ccccc3[N+](=O)[O-])o1)C(C)(C)CCC2(C)C
Key: -2

Exercise: remaining activity at 10 µM lookup needed for Cc1cc2c(cc1Cc1ccc(C(=O)N(C)CCC=C3c4ccccc4CCc4ccccc43)o1)C(C)(C)CCC2(C)C , thanks.
Key: 43

Exercise: Return reported remaining activity at 10 µM; argument: COc1ccccc1N1CCN(C(=O)c2ccc(Cc3cc4c(cc3C)C(C)(C)CCC4(C)C)o2)CC1
Key: 27

---

Target: rat GnRH receptor (Rattus norvegicus, UniProt P30969)
Sequence (P30969 1-327): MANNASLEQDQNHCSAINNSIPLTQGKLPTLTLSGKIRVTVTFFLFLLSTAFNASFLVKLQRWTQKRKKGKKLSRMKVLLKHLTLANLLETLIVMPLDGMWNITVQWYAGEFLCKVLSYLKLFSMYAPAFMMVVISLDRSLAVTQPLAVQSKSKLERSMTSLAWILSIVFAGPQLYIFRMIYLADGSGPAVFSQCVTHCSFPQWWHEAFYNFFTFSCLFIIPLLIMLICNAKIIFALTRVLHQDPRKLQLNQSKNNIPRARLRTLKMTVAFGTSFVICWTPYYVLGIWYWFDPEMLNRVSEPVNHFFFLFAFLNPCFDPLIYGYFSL
Test: Radioligand binding, 125I-GnRH-A, rat pituitary membranes
Parameters: membranes were prepared from rat pituitary; from tissue; host or cells: rat pituitary
Conditions: read-out: rGnRH IC50
So I've got a bunch of molecules here, and I need their IC50 values.
Entry rule: numbers only, all in µM.

Exercise: Checklist item: IC50 tested on rat GnRH receptor (Rattus norvegicus, UniProt P30969), entry Cc1ccc(CNC(=O)c2ccc(Cc3cc4c(cc3C)C(C)(C)CCC4(C)C)o2)cc1C , value?
Key: 0.04

Exercise: Form field - read-out: IC50; system: rat GnRH receptor (Rattus norvegicus, UniProt P30969); submitted item: Cc1cc2c(cc1Cc1ccc(C(=O)NCCOc3ccccc3)o1)C(C)(C)CCC2(C)C
Key: 0.13

Exercise: # returns recorded IC50 (system: rat GnRH receptor (Rattus norvegicus, UniProt P30969)) for Cc1cc2c(cc1Cc1ccc(C(=O)NCc3ccc(F)cc3F)o1)C(C)(C)CCC2(C)C
Key: 0.27

Exercise: Test system rat GnRH receptor (Rattus norvegicus, UniProt P30969); read-out IC50; what value for Cc1cc2c(cc1Cc1ccc(C(=O)NCc3cccc(CNc4ccnc(NC[C@@H]5CCCO5)n4)c3)o1)C(C)(C)CCC2(C)C [Compound 136] ?
Key: 0.0047

Exercise: Field: IC50 (rat GnRH receptor (Rattus norvegicus, UniProt P30969)). Entry: CCOc1cccc(OCC)c1NC(=O)c1ccc(Cc2cc3c(cc2C)C(C)(C)CCC3(C)C)o1
Key: 0.035

Exercise: Find the measured IC50: item Cc1cc2c(cc1Cc1ccc(C(=O)NCc3cccc(CNc4nccc(NC[C@@H]5CCCO5)n4)c3)o1)C(C)(C)CCC2(C)C , target or system rat GnRH receptor (Rattus norvegicus, UniProt P30969).
Key: 0.0016

Exercise: # query: IC50 | item Cc1cc2c(cc1Cc1ccc(C(=O)NCC3CCC(C#N)CC3)o1)C(C)(C)CCC2(C)C (stereo not drawn) | system: rat GnRH receptor (Rattus norvegicus, UniProt P30969)
Key: 0.56

Exercise: Give IC50 (rat GnRH receptor (Rattus norvegicus, UniProt P30969)) of the following molecule: Cc1cc2c(cc1Cc1ccc(C(=O)Nc3ccc4[nH]ccc4c3)o1)C(C)(C)CCC2(C)C
Key: 0.09

Exercise: Requested read-out IC50, target or system rat GnRH receptor (Rattus norvegicus, UniProt P30969), entry Cc1ccc(C)c(Cc2ccc(C(=O)NCc3cnc(C)cn3)o2)c1
Key: 8.45
